// reported melting point for each item listed

A selection of reference data follows.
COc1cc(C(=O)O)ccc1OCc1nc(C)c(C)nc1C [Example 5]; 183 to 185 °C
COc1cc(/C=C/C(=O)O)ccc1OCc1nc(C)c(C)nc1C [MC2]; 156 to 158 °C
COc1cc(C(=O)O)cc(OC)c1OCc1nc(C)c(C)nc1C [Example 2]; > 218 °C (dec.)
Cc1nc(C)c(COc2ccc(C(=O)O)cc2)nc1C [MC1]; 179 to 181 °C

Query block: Dear colleague, I am looking for the recorded melting point of the following molecule: COc1ccc(C(=O)O)cc1OCc1nc(C)c(C)nc1C [MC5]
Result block: 190 to 192 °C

Ref: patent US8350033B2
